protocol summary: Blood levels in mice after subcutaneous administration
Assay type: in vivo
settings: mouse, sc 20 mg./kg., 120', read-out: Blood level
readout type: concentration at 2 h (µg/mL)
Please give a number only; it is taken to be in µg/mL.

Q) Reported concentration at 2 h for O=C(O)Cn1nc2ccc(SCC3=C(C(=O)O)N4C(=O)C(NC(=O)[C@H](O)c5ccccc5)[C@H]4SC3)nn2c1=O (some centres unmarked) : what is it?
A) 0.7

* * *

Here the recorded concentration at 1 h is given for each entry.
protocol summary: Blood levels in mice after subcutaneous administration
Assay type: in vivo
settings: mouse, sc 20 mg./kg., 60', read-out: Blood level
Please give a number only; it is taken to be in ng/mL.

Cn1nnnc1SCC1=C(C(=O)O)N2C(=O)[C@@H](NC(=O)[C@H](O)c3ccccc3)[C@H]2SC1 [Cefamandole, cefamandole, reference compound]: 1000

For the next question, use this compound.
Q) Reported concentration at 1 h for O=C(O)Cn1nc2ccc(SCC3=C(C(=O)O)N4C(=O)C(NC(=O)[C@H](O)c5ccccc5)[C@H]4SC3)nn2c1=O (some centres unmarked) : what is it?
A) 4300

* * *

protocol summary: Stability in solution (remaining activity by paper disc assay)
Type: physicochemical
settings: 10% aqueous solution, room temperature, pH 6.1 (unadjusted), 3 days
readout type: remaining at 72 h (%)
Please give a number only; it is taken to be in %.

Q) Reported remaining at 72 h for O=C(O)Cn1nc2ccc(SCC3=C(C(=O)O)N4C(=O)C(NC(=O)[C@H](O)c5ccccc5)[C@H]4SC3)nn2c1=O (stereo partly shown) : what is it?
A) 90

* * *

protocol summary: Stability in solution (remaining activity by paper disc assay)
Type: physicochemical
settings: 0.02% solution, pH 4 (0.1 M AcOH - NaOAc buffer), 3 days
readout type: remaining at 72 h

Q) Reported remaining at 72 h for O=C(O)Cn1nc2ccc(SCC3=C(C(=O)O)N4C(=O)C(NC(=O)[C@H](O)c5ccccc5)[C@H]4SC3)nn2c1=O (stereo partly shown) : what is it?
A) 78%

* * *

protocol summary: Blood levels in mice after subcutaneous administration
Type: in vivo
settings: mouse, sc 10 mg./kg., 120', read-out: Blood level
readout type: concentration at 2 h (ng/mL)
Please give a number only; it is taken to be in ng/mL.

Q) Reported concentration at 2 h for Cn1nnnc1SCC1=C(C(=O)O)N2C(=O)[C@@H](NC(=O)[C@H](O)c3ccccc3)[C@H]2SC1 [Cefamandole, cefamandole, reference compound] : what is it?
A) 100

* * *

protocol summary: Stability in solution (remaining activity by paper disc assay)
Format: physicochemical
settings: 10% aqueous solution, room temperature, pH 6.1 (unadjusted), 7 days
readout type: remaining at 168 h (%)
Please give a number only; it is taken to be in %.

Q) Reported remaining at 168 h for O=C(O)Cn1nc2ccc(SCC3=C(C(=O)O)N4C(=O)C(NC(=O)[C@H](O)c5ccccc5)[C@H]4SC3)nn2c1=O (stereo partly shown) : what is it?
A) 116

The reported measurements were obtained from patent US4112228A.
